Biological target: α5β1 integrin on U87MG cells (human, UniProt P08648 42-1049; P05556 21-798)
Sequence (P08648 42-1049 limits assumed, chain 1 of 2): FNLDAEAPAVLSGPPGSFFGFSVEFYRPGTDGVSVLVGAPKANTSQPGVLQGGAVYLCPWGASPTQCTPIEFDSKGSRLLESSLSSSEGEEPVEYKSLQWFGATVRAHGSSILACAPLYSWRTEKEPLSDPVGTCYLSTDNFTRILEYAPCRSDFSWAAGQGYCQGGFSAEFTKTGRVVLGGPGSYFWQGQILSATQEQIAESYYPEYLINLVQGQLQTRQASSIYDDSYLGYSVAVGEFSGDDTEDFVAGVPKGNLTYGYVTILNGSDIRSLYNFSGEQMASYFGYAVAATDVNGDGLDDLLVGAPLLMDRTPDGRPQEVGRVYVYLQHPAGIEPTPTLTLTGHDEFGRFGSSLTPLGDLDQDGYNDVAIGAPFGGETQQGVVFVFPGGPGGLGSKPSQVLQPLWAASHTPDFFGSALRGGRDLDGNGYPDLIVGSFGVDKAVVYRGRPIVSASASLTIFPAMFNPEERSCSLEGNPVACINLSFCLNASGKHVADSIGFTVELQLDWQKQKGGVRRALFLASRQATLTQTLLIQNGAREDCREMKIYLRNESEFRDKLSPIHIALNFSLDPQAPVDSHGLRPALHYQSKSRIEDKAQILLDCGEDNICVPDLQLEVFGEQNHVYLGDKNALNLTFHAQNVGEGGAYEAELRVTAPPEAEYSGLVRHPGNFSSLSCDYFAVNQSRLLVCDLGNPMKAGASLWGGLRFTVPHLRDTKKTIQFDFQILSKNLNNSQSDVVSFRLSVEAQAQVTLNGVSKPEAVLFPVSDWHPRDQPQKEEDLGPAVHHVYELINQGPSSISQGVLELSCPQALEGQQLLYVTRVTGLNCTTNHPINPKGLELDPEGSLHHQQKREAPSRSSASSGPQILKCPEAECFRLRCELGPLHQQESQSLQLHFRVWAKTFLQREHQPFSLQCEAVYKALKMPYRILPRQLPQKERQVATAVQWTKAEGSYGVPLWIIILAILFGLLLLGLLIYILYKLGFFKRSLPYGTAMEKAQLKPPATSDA
Sequence (P05556 21-798 limits assumed, chain 2 of 2): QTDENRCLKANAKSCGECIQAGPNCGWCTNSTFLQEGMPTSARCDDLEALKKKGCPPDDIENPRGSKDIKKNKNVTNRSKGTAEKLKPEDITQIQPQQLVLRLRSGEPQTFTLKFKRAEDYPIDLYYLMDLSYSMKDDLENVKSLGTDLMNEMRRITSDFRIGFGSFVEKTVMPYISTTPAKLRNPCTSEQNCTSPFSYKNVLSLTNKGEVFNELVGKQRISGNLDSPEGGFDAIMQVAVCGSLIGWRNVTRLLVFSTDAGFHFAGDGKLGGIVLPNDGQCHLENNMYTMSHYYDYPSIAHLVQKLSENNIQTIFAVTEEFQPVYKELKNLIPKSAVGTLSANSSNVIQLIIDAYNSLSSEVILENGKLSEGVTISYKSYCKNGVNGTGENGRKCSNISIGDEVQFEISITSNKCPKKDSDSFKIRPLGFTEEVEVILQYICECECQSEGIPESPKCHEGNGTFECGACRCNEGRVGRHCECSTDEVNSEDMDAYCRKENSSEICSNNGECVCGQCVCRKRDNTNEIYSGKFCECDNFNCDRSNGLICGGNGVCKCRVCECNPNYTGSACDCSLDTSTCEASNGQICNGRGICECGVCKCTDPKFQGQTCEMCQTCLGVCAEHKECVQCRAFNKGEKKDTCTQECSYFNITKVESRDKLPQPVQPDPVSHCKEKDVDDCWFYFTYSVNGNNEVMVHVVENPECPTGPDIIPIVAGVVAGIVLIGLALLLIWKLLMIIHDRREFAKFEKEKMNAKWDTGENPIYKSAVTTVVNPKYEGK
Test: cell-based or functional assay
I'd appreciate it if you could supply % Inhibition values for the items below.
Just the number in %, nothing appended.

Q: Recorded % Inhibition for C-14D12 IgG4 Chimera (antibody, V domains shown) VH: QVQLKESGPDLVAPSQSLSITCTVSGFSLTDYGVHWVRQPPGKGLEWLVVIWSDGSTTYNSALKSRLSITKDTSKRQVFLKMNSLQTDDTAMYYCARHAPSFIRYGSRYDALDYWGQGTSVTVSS VL: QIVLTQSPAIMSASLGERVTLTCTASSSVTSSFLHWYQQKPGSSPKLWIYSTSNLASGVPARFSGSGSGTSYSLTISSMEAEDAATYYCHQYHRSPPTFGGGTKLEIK , please?
A: 78

Q: Would you kindly share the measured % Inhibition for A-15B08-T62A IgG4 Chimera (antibody, V domains shown) VH: QVQLKESGPGLVAPSQSLSITCTISGFSLTSYGVHWVRQPPGKGLEWLVVIWSDGSTTYNSALKSRLSISKDNSKSQVFFKMNSLQTDDTAMYYCARHYDYDGDWFAYWGQGTLVTVSA VL: QIVLTQSPAIMSASLGERVTMTCTASSRVSSNSLHWYQQKPGSSPKLWIYSTSNLASGVPARFSGSGSGTSYSLTISSMEAEDAATYYCHQYLRSPPTFGGGTKLEIK ?
A: 82

Q: Please report the recorded % Inhibition for A2-7A05 IgG4 Chimera (antibody, V domains shown) VH: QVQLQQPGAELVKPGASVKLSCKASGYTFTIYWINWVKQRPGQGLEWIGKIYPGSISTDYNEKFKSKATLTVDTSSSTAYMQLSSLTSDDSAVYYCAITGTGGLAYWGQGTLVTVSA VL: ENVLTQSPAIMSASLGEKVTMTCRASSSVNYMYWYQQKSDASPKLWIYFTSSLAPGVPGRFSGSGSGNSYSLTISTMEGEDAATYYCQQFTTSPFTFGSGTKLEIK .
A: 25

From: patent US20240279345A1
